Biological target: Hemoglobin HbA (Homo sapiens) (UniProt P69905+P68871)
Sequence (P68871 2-147 partner limits assumed): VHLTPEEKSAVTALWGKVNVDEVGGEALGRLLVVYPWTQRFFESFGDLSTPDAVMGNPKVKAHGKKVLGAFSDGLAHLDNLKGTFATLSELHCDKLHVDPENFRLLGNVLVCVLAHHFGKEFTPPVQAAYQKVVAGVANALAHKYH
Sequence (P69905 2-142 limits assumed): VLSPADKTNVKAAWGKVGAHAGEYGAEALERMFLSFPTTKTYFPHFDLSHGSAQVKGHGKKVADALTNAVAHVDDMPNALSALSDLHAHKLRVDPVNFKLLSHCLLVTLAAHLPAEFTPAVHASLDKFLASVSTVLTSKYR
Test: Oxygen pressure at which hemoglobin is 50% saturated with oxygen in the presence of the effector.
Assay type: functional
attribute measured: P50e (mmHg)

CCCC(Oc1ccc(CC(=O)Nc2cc(C)cc(C)c2)cc1)C(=O)O (centres undefined)    16.1

A = CCC(C)(Oc1ccc(CC(=O)Nc2cc(C)cc(Cl)c2)cc1)C(=O)O (centres undefined)
B = Cc1cc(C)cc(NC(=O)Cc2ccc(OC(F)C(=O)O)cc2)c1 (centres undefined)
Request: Which entry has a larger number for P50e, A or B ? Kindly give the label for the entry you pick.
Response: A

1 = Cc1cc(C)cc(NC(=O)Cc2ccc(OC3(C(=O)O)CCOC3C)cc2)c1 (centres undefined)
2 = CC1CCCC1(Oc1ccc(CC(=O)Nc2ccc3c(c2)CCC3)cc1)C(=O)O (centres undefined)
Request: Identify the entry with the smaller P50e: 1 or 2 . Kindly give the label for the entry you pick.
Response: 1
(1: 7.6 mmHg, 2: 13.8 mmHg)
